Hey, just so you know, these numbers are from patent US20230242558A1.

# Test system: NHDF cells
# Experiment Summary: General NAD Assay Procedure: total NAD level in NHDF cells (NAD/NADH Quantification Kit)
# Assay type: cell-based
# Condition Notes: 6-Hour, Conc. 10 μM
For each entry below, report its Average Total NAD (pmoles) Concentration from NAD Assay value.
Numbers only, in pmol.

O=C(NCCCCCC[P+](c1ccccc1)(c1ccccc1)c1ccccc1)c1cccnc1
77.0
O=C(O)c1ccc[n+]([C@@H]2O[C@H](COP(=O)(O)O)[C@@H](O)[C@H]2O)c1 [Sample 1, Nicotinic acid mononucleotide]
77.8
O=C(NCCCCCC[P+](c1ccccc1)(c1ccccc1)c1ccccc1)c1ccc[n+]([C@@H]2O[C@H](COP(=O)(O)O)[C@@H](O)[C@H]2O)c1
82.0

Now let's try a different one.
# molecule NC(=O)c1ccc[n+]([C@@H]2O[C@H](COP(=O)([O-])O)[C@@H](O)[C@H]2O)c1 [NMN, nicotinamide mononucleotide, reference compound] ; its Average Total NAD (pmoles) Concentration from NAD Assay = 54.9
